Consider the following compounds; for each one, report its GI50.
# target entity: BaF3 TELJAK2 cells (BafT_J2) (Homo sapiens)
# Construct: fused on or other part: TEL (ETV6) N-terminal part, coding nucleotides 1-487, serves as the oligomerising partner; It is fused through a Sal I site to the JAK2 kinase domain and expressed from pTRE2 in BaF3 cells bearing pTET-off; P41212 (Transcription factor ETV6)
# Sequence (O60674 whole entry, change not shown, the tested form may be a part): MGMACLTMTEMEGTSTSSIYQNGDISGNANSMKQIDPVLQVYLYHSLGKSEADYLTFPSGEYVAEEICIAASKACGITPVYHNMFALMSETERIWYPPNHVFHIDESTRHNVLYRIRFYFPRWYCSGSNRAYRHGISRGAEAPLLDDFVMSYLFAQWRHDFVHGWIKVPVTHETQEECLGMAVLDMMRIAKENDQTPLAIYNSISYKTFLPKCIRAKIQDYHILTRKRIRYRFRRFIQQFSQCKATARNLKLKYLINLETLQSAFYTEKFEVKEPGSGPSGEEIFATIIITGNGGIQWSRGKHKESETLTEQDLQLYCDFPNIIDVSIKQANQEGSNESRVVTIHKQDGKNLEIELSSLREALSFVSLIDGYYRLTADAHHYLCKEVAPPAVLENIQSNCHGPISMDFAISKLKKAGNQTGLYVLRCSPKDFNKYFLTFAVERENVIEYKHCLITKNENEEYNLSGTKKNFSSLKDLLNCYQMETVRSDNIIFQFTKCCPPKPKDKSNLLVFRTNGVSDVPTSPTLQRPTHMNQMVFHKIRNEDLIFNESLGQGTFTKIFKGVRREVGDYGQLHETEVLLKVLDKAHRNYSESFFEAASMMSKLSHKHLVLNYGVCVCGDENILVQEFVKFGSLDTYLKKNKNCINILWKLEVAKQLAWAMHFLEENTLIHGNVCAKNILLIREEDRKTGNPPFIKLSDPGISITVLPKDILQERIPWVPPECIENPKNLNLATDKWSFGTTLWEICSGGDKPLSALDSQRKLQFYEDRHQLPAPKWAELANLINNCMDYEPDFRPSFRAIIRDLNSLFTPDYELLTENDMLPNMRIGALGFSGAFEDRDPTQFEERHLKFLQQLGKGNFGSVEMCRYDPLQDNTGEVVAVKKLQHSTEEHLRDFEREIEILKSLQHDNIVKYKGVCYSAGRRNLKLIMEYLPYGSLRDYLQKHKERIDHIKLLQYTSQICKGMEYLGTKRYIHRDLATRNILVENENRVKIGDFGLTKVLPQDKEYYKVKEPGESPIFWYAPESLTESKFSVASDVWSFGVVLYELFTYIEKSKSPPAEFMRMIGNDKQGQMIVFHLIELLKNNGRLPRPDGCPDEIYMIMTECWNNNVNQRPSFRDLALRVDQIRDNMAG
# method summary: Cellular screening, BaF3 TEL:JAK2 cells, Alamar Blue
# Type: cell-based
# run conditions: 40 hr, read-out: BafT_J2 IC50_nM

Which GI50 is listed for C=CC(=O)Nc1ccc(Sc2nc(Nc3cccc(OCCCO)c3)ncc2C)cc1 ?
< 20 µM

And C=CC(=O)Nc1ccc(Sc2nc(Nc3ccc(N4CCN(C)CC4)c(OC)c3)ncc2C)cc1 ?
< 5 µM

And C=CC(=O)Nc1ccc(Sc2nc(Nc3cccc(OC)c3)ncc2C)cc1 ?
< 20 µM

And C=CC(=O)Nc1ccc(Sc2ccnc(Nc3ccc(S(N)(=O)=O)cc3)n2)cc1 ?
< 20 µM

And C=CC(=O)Nc1ccc(Sc2nc(Nc3ccc(N4CCN(C)CC4)cc3)ncc2C)cc1 ?
< 5 µM

And N#Cc1ncn(Cc2ccc(Sc3ccnc(Nc4ccc(N5CCOCC5)cc4)n3)cc2)c1N ?
< 5 µM

And C=CC(=O)Nc1ccc(Sc2nc(Nc3cccc(NS(C)(=O)=O)c3)ncc2C)cc1 ?
< 20 µM

And Cc1cnc(Nc2ccc(N3CCOCC3)cc2)nc1Sc1ccc(N2C(=O)COCC2=O)cc1 ?
> 20 µM

And C=CC(=O)Nc1ccc(Sc2nc(Nc3ccc(N4CCS(=O)(=O)CC4)cc3)ncc2C)cc1 ?
< 20 µM

And C=CC(=O)Nc1ccc(Sc2ccnc(Nc3ccc(S(=O)(=O)N4CCOCC4)c(OC)c3)n2)cc1 ?
< 5 µM

And Cc1cnc(Nc2ccc(N3CCN(C)CC3)cc2)nc1Sc1ccc(N)cc1 ?
< 5 µM

And C=CC(=O)Nc1ccc(Sc2ccnc(Nc3ccc(S(N)(=O)=O)c(OC)c3)n2)cc1 ?
< 5 µM

And C=CC(=O)Nc1ccc(Sc2nc(Nc3ccc(OC)c(O)c3)ncc2C)cc1 ?
< 20 µM

And Cc1cnc(Nc2ccc(N3CCOCC3)cc2)nc1Sc1ccc(N)cc1Cl ?
> 20 µM

And Cc1cnc(Nc2ccc(N3CCOCC3)cc2)nc1Sc1ccc(NC2CCOC2=O)cc1 (centres unmarked) ?
> 20 µM

And Nc1ccc(Sc2nc(Nc3ccc(N4CCOCC4)cc3)ncc2F)cc1 ?
< 5 µM

And CSc1nc(Nc2ccc(N3CCOCC3)cc2)ncc1C ?
< 5 µM

The values you see were collected from patent US8846704B2.
